# key: entry, value: MIC90
test system: clinical isolates of multidrug-resistant Klebsiella pneumoniae (and ATCC43816); experiment: MIC determination at Fidelta, clinical isolates; assay type: cell-based; conditions: Klebsiella pneumoniae, ATCC43816, KP-2034; Urine/ESBL, OXA-48

>  <Molecule>
NC[C@H]1O[C@H](O[C@H]2[C@H](O)[C@@H](O[C@H]3O[C@H](CO)[C@@H](O)[C@H](N)[C@H]3O)[C@H](N)C[C@@H]2N)[C@H](N)C[C@@H]1O [Tobramycin, tobramycin]

>  <Inequality operator>
=

>  <MIC90, µg/mL>
32

$$$$
>  <Molecule>
CC(C)(O/N=C(\C(=O)N[C@@H]1C(=O)N2C(C(=O)[O-])=C(C[n+]3ccccc3)CS[C@H]12)c1csc(N)n1)C(=O)O [Ceftazidime, reference compound]

>  <Inequality operator>
>

>  <MIC90, µg/mL>
64

$$$$
>  <Molecule>
C[C@@H](O)[C@H]1C(=O)N2C(C(=O)O)=C(S[C@@H]3CN[C@H](C(=O)N(C)C)C3)[C@H](C)[C@H]12 [Meropenem, meropenem, reference compound]

>  <Inequality operator>
=

>  <MIC90, µg/mL>
16

$$$$
>  <Molecule>
NCC[C@H](O)C(=O)N[C@@H]1C[C@H](N)[C@@H](O[C@H]2O[C@H](CN)[C@@H](O)[C@H](O)[C@H]2O)[C@H](O)[C@H]1O[C@H]1O[C@H](CO)[C@@H](O)[C@H](N)[C@H]1O [Amikacin, amikacin, reference compound]

>  <Inequality operator>
=

>  <MIC90, µg/mL>
16

$$$$

====

tested on: Enterobacter cloacae 3MRGN (clinical bronchial aspirate isolate); assay: MIC 50, broth micro-dilution, clinical isolate; format: cell-based; conditions: E. Cloacae clinical isolate

>  <Compound>
N=C(N)NC1[C@@H](O)C(OC2[C@@H](F)[C@H](O[C@H]3OC(CN)[C@@H](O)[C@H](O)C3N)C(N)C[C@H]2NC(=O)[C@@H](O)CCN)O[C@H](CO)[C@H]1O (some centres unmarked) [ABX4006, KanaB-AHB-F-Gua]

>  <MIC50>
0.25 to 0.5 µM

$$$$
>  <Compound>
NCC[C@H](O)C(=O)N[C@@H]1C[C@H](N)[C@@H](O[C@H]2O[C@H](CN)[C@@H](O)[C@@H](O)[C@H]2O)[C@H](O)[C@H]1O[C@H]1O[C@H](CO)[C@@H](O)[C@H](N)[C@H]1O [ABX3002, 3′Epi-KanaA-AHB]

>  <MIC50>
16 µM

$$$$
>  <Compound>
NCC[C@H](O)C(=O)N[C@@H]1CC(N)[C@@H](O[C@H]2OC(CN)[C@@H](O)CC2N)[C@H](O)C1OC1O[C@H](CO)[C@@H](O)C(N)[C@H]1O (some centres unmarked)

>  <MIC50>
1 µM

$$$$
>  <Compound>
N=C(N)NC1[C@@H](O)C(OC2[C@@H](O)[C@H](O[C@H]3OC(CN)[C@@H](O)CC3N)C(N)C[C@H]2NC(=O)[C@@H](O)CCN)O[C@H](CO)[C@H]1O (some centres unmarked)

>  <MIC50>
1 µM

$$$$
>  <Compound>
NCC[C@H](O)C(=O)N[C@@H]1CC(N)[C@@H](O[C@H]2OC(CN)[C@@H](O)[C@@H](O)C2N)[C@H](F)C1OC1O[C@H](CO)[C@@H](O)C(N)[C@H]1O (stereo partly drawn) [ABX4003, 3′Epi-KanaB-AHB-F]

>  <MIC50>
4 µM

$$$$

Data provenance is patent US20220127297A1.
